system: Acinetobacter baumannii; experiment: Antibacterial activity against Acinetobacter baumannii ARC 3486 after 18 hrs by broth microdilution method; type: functional; details: ARC 3486, 18 h
observed property: MIC

1. O=C(O)c1cn(C2CC2)c2cc(N3CCNCC3)c(F)cc2c1=O	> 25 µM

###

Catalogue of MIC values
system: Acinetobacter baumannii; assay: Antibacterial activity against Acinetobacter baumannii ATCC 17961 after 18 hrs by broth microdilution method; assay type: functional; details: ATCC 17961, 18 h
observed property: MIC (µM)

1) O=C(O)c1cn(C2CC2)c2cc(N3CCNCC3)c(F)cc2c1=O [CIPROFLOXACIN]	0.2
2) CCCCCCCCCC(=O)N[C@@H](Cc1c[nH]c2ccccc12)C(=O)N[C@H](CC(N)=O)C(=O)N[C@@H](CC(=O)O)C(=O)N[C@@H]1C(=O)NCC(=O)N[C@@H](CCCNC(=O)CCCC(=O)N(O)CCCCCNC(=O)CCC(=O)N(CCCCNC(=O)c2cccc(O)c2O)CCCNC(=O)c2cccc(O)c2O)C(=O)N[C@@H](CC(=O)O)C(=O)N[C@H](C)C(=O)N[C@@H](CC(=O)O)C(=O)NCC(=O)N[C@H](CO)C(=O)N[C@@H]([C@@H](C)CC(=O)O)C(=O)N[C@@H](CC(=O)c2ccccc2N)C(=O)O[C@@H]1C	0.4
3) NCC[C@H](O)C(=O)N[C@@H]1C[C@H](N)[C@@H](O[C@H]2O[C@H](CN)[C@@H](O)[C@H](O)[C@H]2O)[C@H](O)[C@H]1O[C@H]1O[C@H](CO)[C@@H](O)[C@H](N)[C@H]1O [AMIKACIN]	1.7
